Parameter: c-Kit AVG % Activity at Specific Concentration. Scope: all listed entries.
# systemName: c-Kit (Homo sapiens)
# Sequence (P10721 26-976): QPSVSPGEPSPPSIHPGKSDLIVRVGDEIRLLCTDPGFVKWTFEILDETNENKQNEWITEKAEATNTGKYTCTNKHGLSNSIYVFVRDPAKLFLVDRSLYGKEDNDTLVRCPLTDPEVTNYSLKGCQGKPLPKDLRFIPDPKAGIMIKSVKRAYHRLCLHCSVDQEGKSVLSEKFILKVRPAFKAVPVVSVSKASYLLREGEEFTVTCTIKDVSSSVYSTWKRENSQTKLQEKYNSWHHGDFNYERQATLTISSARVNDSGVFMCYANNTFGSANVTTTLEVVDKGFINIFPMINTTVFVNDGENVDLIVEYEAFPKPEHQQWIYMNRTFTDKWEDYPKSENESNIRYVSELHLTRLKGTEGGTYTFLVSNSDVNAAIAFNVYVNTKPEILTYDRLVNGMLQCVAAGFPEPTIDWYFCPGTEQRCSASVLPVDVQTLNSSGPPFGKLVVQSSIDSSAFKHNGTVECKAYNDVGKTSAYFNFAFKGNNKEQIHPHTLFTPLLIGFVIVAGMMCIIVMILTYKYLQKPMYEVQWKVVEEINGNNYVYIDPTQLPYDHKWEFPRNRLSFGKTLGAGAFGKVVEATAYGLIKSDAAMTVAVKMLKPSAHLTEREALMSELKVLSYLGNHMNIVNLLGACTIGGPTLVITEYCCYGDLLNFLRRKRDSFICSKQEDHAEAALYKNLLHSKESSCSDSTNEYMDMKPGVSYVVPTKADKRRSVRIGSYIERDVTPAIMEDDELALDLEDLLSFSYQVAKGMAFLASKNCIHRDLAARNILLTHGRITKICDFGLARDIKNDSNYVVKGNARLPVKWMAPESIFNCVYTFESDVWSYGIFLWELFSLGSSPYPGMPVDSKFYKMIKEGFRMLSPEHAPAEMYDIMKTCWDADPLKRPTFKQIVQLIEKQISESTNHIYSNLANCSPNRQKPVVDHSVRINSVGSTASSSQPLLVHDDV
# assayMethodText: c-Kit tyrosine kinase inhibition, Caliper screening (fluorescent substrate phosphorylation, electrophoretic separation)
# Format: biochemical
# testSettings: concentration 3.0E−10 (unit not given)
// units = %; emit number, no label

Enquiry: State the recorded c-Kit AVG % Activity at Specific Concentration for this entry: `COCCOCCOCCOCCOCCNC(=O)c1c(C)[nH]c(/C=C2\C(=O)Nc3ccc(F)cc32)c1C`
Return: 99

Enquiry: Proceed to `COCCOCCOCCOCCOCCOCCNC(=O)c1c(C)[nH]c(/C=C2\C(=O)Nc3ccc(F)cc32)c1C`
Return: 87

Enquiry: Proceed to `COCCOCCOCCOCCNC(=O)c1c(C)[nH]c(/C=C2\C(=O)Nc3ccc(F)cc32)c1C`
Return: 100

Enquiry: Proceed to `COCCOCCOCCNC(=O)c1c(C)[nH]c(/C=C2\C(=O)Nc3ccc(F)cc32)c1C`
Return: 102

Origin of the recorded values: patent US11007270B2
